- assay target: Fuc(a1-2)[Gal(a1-3)]Gal(b1-4)GlcNAc(b1-3)[Fuc(a1-2)[Gal(a1-3)]Gal(b1-4)GlcNAc(b1-6)]GalNAc
- assay details: glycan array binding signal (z-score within array); higher = stronger binding
- condition description: glycan notation: IUPAC condensed, linker removed
The full list was thinned out, with the strongest signals kept by preference.
glycan array binding signal (z-score) values by entry
Please state the value as a number alone, without comment.

Answered examples (2):
SSR2 (Sclerotium rolfsii) (protein) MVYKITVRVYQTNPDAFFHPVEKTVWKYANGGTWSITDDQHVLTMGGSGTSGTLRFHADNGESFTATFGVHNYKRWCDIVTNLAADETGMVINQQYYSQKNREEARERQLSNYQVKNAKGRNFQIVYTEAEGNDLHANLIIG ... -0.277
PNGase F (Flavobacterium meningosepticum) (protein) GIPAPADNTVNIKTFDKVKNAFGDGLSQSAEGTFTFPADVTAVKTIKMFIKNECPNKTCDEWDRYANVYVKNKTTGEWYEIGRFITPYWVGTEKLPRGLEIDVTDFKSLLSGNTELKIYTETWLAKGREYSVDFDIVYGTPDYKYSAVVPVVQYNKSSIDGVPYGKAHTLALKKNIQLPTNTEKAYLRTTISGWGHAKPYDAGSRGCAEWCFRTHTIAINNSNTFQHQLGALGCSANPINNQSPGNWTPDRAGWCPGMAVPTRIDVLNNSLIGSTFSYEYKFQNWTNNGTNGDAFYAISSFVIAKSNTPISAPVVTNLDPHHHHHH ... 1.46

Query glycan array binding signal (z-score) for AidA (Burkholderia cenocepacia) (protein) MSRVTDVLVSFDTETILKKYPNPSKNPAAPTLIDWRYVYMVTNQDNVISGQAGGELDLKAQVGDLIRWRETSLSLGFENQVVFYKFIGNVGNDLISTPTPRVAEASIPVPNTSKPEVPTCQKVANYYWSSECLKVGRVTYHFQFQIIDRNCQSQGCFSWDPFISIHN
0.451
